Ref: paper PMC5540273

Assign %Inh to each entry below.
Test system: TAOK1;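 further: KINOMEscan kinase panel screen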
condition details: concentration: 1 μM, replicates: in singlicate; n = 1
Your answer should be a plain number; it is taken to be in %.

Exercise: Fill in: %Inh of O=C(NCCNc1ccnc(Nc2ccc(F)cc2)n1)Nc1ccccc1F is ___
Key: 0

Exercise: Fill in: %Inh of COCCNC(=O)c1ccc(-c2cc(C(=O)NC3CC3)cc(F)c2C)cc1 is ___
Key: 29

Exercise: Fill in: %Inh of Cl.Nc1ncnc2occ(-c3ccc(NC(=O)Nc4cc(C(F)(F)F)ccc4F)cc3)c12 is ___
Key: 13

Exercise: Fill in: %Inh of COC(=O)Nc1nc2cc(Oc3ccc(NC(=O)Nc4cc(F)ccc4F)cc3)ccc2[nH]1.Cl is ___
Key: 0

Exercise: Fill in: %Inh of CC(C)Oc1ccc2c(-c3ccnc(Nc4ccc(N5CCN(C)CC5)cc4)n3)cnn2n1 is ___
Key: 76

Exercise: Fill in: %Inh of CSc1ccc(-c2cc3ncnc(SCC(=O)O)c3s2)cc1 is ___
Key: 0

Exercise: Fill in: %Inh of COc1ccc(CNC(=O)NC2CCN(c3ccnc(Nc4ccc(OC)cc4)n3)C2)cc1 (stereo not drawn) is ___
Key: 0

Exercise: Fill in: %Inh of O=C(NCCNc1ccnc(Nc2ccc(F)cc2)n1)c1cc2ccccc2s1 is ___
Key: 0

Exercise: Fill in: %Inh of CN(C1=C(c2ccccc2)C(=O)NC1=O)c1ccccc1 is ___
Key: 0
